# test_summary: HUVEC growth inhibition – cell-based, human, primary screen (AID 575);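 further: 100% = median of untreated cell wells with 0.1% DMSO on each plate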
# condition_set: HUVEC proliferation, CellTiter-Glo luminescence, 72 h; at 10 µM; hits give low values
Just so you know, the groups by viability go like this: Low (below 80%), Medium (80% to below 90%), High (90% or more)

O=c1sc(Nc2ccccc2)nc2ccsc12 ... Low
Cc1ccc(NC(=O)CNc2cccc(C)c2C)c(C)c1 ... High
COC(=O)CSc1nc(C)c(C(C)=O)cc1C#N ... High
NC(=O)c1ccccc1NC(=O)CCCN1C(=O)CCC1=O ... High
CC(=O)N1CCN=C1SCc1ccc(Br)cc1 ... Low
CC1CCN(Cc2ccc(-c3nn[nH]n3)cc2)CC1 ... High
CCOC(=O)C(C)Sc1nc2c(cnn2-c2ccc(C)cc2)c(=O)[nH]1 (stereo not given) ... Low
NC1=NC(c2ccc(Cl)cc2)n2c(nc3ccccc32)N1 (stereo not given) ... Medium

Problem: The entry to classify is COc1ccc(CN(C(=O)c2oc3ccccc3c2C)C2CCS(=O)(=O)C2)cc1 (stereo not given) ; which class holds it?
Solution: Medium

Problem: Which bin, given its viability, does COc1ccc(CN2C(=O)c3cccnc3C2Nc2cc(Cl)ccc2OC)cc1 (stereo not given) occupy?
Solution: Medium

----------
# target: Receptor tyrosine-protein kinase erbB-2 (Homo sapiens) (UniProt P04626)
# Sequence (P04626 whole entry, looked up): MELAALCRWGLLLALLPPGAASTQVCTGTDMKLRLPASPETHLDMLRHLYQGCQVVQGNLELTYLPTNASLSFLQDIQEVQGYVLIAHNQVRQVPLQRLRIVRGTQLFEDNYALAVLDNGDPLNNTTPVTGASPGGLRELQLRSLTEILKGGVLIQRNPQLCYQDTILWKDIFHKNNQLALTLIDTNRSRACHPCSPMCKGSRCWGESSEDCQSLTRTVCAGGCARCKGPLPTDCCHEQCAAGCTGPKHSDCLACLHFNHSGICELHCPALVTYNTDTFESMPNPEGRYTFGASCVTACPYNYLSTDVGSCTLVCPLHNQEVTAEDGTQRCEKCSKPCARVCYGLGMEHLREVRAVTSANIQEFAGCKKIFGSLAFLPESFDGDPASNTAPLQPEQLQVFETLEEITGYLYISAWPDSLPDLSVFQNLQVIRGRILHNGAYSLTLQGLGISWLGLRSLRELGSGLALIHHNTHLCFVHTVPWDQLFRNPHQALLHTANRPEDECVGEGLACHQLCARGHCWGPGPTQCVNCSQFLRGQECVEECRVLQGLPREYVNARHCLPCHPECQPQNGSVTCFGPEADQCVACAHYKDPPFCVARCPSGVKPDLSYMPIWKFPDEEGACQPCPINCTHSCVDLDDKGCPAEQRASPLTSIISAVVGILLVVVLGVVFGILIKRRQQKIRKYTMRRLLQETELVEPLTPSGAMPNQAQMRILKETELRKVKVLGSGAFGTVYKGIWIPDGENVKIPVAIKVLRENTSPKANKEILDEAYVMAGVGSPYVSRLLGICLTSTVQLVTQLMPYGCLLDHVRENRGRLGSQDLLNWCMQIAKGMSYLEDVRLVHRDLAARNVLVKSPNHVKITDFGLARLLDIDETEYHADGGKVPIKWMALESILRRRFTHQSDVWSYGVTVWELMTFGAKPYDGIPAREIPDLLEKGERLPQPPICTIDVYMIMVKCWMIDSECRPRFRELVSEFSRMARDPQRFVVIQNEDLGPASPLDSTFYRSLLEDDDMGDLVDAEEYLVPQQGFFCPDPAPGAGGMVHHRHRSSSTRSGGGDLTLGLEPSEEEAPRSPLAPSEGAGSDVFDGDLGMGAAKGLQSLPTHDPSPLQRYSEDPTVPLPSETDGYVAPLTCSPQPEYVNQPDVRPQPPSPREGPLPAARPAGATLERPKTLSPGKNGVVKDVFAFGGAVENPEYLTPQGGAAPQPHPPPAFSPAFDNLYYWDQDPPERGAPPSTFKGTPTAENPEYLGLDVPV
# test_summary: reducers of endogenous Her2 protein level, primary screen, SKBR3 breast tumor cells, AlphaScreen, ATP viability (AID 461);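 further: lower value means less Her2 protein in the cells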
# condition_set: 18-24 h, at 10 µM, hits give low values
Calls of active or inactive are those of the source.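 The calls were made as follows: active = Her2 level under about 52% in both replicate screens, with viability over 70% of control (limit read from the data); inconclusive = Her2 under the limit in one screen only, or viability under 70%; inactive = Her2 level above the set limit.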
So I've got a bunch of molecules here, and I need their Her2 level values.

O=c1c2ccccc2nc(SCc2cccc(F)c2)n1Cc1ccco1 ... 97.5% (inactive)

Look up Her2 level for the entries below, preserving their order.
1. CCn1c(SCC(=O)c2ccc(F)cc2)nnc1-c1ccoc1C
2. Cc1cccc(-n2c(Cc3cc(=O)[nH]c(=O)[nH]3)nnc2SCC(=O)NCc2ccco2)c1
3. COC(=O)C(C)Sc1nc2c(c(=O)n(C)c(=O)n2C)n1Cc1cccc(C)c1 (stereo not given)
4. Cc1ccc(-c2nn(C)c(=O)c3ccccc23)cc1S(=O)(=O)NCCN1CCOCC1

Solution:
1. 97.5% (inactive)
2. 89.5% (inactive)
3. 86.5% (inactive)
4. 121% (inactive)

----------
# test_summary: reversal of MRP1-mediated doxorubicin resistance, pilot screen, H69AR cells, doxorubicin co-treatment (AID 601)
# condition_set: H69AR cells + 2 uM doxorubicin, CellTiter-Glo, 72 h; at 10 µM; hits give high values
I'd be grateful if you could share measured differential viability (reversal) for these entries.
Numbers only, in %.

// known answers, use as guide
CC(C(=O)Nc1ccccc1-c1ccccc1)N1CCN(C(=O)c2ccco2)CC1 (stereo not given) ... 8.3
COc1cccc(-c2noc(C3CCCN(C(=O)Cc4ccccc4)C3)n2)c1 (stereo not given) ... -2.34
CC(C)(C)n1ncc2c(=O)n(CC(=O)NCc3ccco3)cnc21 ... -12.3
COc1cccc(Cn2c(OCC3CCCO3)nc3c2c(=O)n(C)c(=O)n3C)c1 (stereo not given) ... -0.075
O=C1c2ccccc2C(=O)N1CNc1ccccc1 ... -17.7
CCC1C(=O)N=C(SCC(=O)Nc2cccc3ccccc23)NC1=O (stereo not given) ... -9.84
CCC(=O)O[C@]1(C(=O)CCl)[C@@H](C)C[C@H]2[C@@H]3CCC4=CC(=O)C=C[C@]4(C)[C@@]3(F)[C@@H](O)C[C@@]21C ... -13.3
CN(CC(=O)Nc1nccs1)S(=O)(=O)c1ccc(F)cc1 ... -7.69
C[C@]12CCC(=O)C=C1CC[C@@H]1[C@@H]2C(=O)C[C@@]2(C)[C@H]1CC[C@]2(O)C(=O)CO ... 12.6

Problem: Please supply the value of reported differential viability (reversal) for the item CCOc1ccc2nc(SCc3ccc(C(=O)OC)o3)[nH]c2c1
Solution: 12.7
